Listed here: items and their measured EC50.
# target-system: human E3 ligase component cereblon (CRBN) (Homo sapiens, UniProt Q96SW2)
# Sequence (Q96SW2 whole entry): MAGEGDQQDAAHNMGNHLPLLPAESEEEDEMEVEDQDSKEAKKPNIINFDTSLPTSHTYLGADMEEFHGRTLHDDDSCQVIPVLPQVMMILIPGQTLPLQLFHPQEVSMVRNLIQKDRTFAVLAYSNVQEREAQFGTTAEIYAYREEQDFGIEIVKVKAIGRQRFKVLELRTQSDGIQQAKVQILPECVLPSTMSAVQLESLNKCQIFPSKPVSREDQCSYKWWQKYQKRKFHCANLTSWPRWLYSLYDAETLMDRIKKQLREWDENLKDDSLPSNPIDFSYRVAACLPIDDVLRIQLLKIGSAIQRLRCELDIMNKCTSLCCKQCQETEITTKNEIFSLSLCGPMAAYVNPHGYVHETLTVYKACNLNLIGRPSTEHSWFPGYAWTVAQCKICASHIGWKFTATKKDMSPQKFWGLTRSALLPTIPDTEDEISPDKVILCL
# Sequence (Q16531 whole entry partner): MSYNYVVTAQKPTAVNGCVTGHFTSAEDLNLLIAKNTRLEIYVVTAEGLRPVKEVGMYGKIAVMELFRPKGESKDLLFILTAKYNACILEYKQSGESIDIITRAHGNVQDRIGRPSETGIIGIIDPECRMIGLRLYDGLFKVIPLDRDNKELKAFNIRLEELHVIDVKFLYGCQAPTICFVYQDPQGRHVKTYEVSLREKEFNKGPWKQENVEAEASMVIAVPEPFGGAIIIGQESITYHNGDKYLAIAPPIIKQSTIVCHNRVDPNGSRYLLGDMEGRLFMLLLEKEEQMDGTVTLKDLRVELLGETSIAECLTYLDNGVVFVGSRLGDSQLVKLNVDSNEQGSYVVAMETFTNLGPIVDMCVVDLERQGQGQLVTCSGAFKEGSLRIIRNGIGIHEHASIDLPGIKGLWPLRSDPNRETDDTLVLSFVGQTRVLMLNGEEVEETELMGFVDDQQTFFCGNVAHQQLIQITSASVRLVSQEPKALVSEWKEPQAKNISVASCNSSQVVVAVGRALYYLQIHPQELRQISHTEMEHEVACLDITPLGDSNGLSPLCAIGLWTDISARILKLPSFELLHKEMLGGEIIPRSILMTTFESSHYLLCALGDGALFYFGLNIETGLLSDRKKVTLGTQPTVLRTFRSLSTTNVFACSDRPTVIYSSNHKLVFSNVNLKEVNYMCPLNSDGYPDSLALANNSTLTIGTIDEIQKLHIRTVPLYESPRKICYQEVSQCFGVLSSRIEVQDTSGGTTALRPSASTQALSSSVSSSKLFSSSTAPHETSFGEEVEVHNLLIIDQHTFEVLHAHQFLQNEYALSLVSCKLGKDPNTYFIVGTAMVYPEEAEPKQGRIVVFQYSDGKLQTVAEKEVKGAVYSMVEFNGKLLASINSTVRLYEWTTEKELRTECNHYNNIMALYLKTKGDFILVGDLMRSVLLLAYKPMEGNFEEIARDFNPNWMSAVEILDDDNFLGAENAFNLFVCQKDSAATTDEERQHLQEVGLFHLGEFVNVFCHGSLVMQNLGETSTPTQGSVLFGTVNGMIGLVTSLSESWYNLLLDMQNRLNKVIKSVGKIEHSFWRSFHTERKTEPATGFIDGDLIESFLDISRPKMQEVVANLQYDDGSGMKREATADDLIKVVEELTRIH
# experimental-details: Cereblon (CRBN) target engagement, NanoBRET TE Intracellular E3 Ligase Assay in transfected HEK-293T cells
# conditions: read-out: CRBN Binding EC50
Note: unit nM is implicit; provide only the numeric part.

// below: answered compounds
compound	EC50 [nM]
O=C1CCC(N2Cc3cc(O[C@@H]4CCCC[C@@H]4N4CC(c5ncc(C(F)(F)F)cn5)C4)ccc3C2=O)C(=O)N1 (mixture of isomers) [Compound 186-B]	6
CC(=O)N1CCC(C2CN([C@H]3CCCC[C@@H]3Oc3ccc4c(c3)CN(C3CCC(=O)NC3=O)C4=O)C2)CC1 (stereo partly shown) [Compound 12-A]	52
O=C1CCC(N2Cc3cc(O[C@H]4CCCC[C@@H]4N4CC(c5ccncc5F)C4)ccc3C2=O)C(=O)N1 (single isomer, unassigned) [Compound 102-B]	15
O=C1CCC(N2Cc3cc(OC4CCC[C@@H]4N4CC(c5cncnc5)C4)ccc3C2=O)C(=O)N1 (mixture of isomers) [Compound 197-B]	138

May I ask what EC50 has been recorded for O=C1CCC(N2Cc3cc(OC4CCCCC4N4CC(c5ncc(C6CC6)cn5)C4)ccc3C2=O)C(=O)N1 (stereo not shown) [Compound 177-B] ? 2

Same read-out for CN(C)C(=O)C1CCN(c2ccc(CN3CCC(O)(c4ccc5c(c4)CN(C4CCC(=O)NC4=O)C5=O)CC3)cc2)CC1 (stereo not shown) [Compound 41-A] ? 611

----------
Listed here: items and their measured inhibition at 1 µM.
# target-system: IKZF2 (Helios) (Homo sapiens, UniProt Q96SW2+Q9UKS7)
# Construct: Leu-Asp junction (codons ctcgac before the linker); mScarlet (behind P2A) (C, cleaved yes); expressed in transfected cells
# Sequence (Q9UKS7 whole entry, one chain of several): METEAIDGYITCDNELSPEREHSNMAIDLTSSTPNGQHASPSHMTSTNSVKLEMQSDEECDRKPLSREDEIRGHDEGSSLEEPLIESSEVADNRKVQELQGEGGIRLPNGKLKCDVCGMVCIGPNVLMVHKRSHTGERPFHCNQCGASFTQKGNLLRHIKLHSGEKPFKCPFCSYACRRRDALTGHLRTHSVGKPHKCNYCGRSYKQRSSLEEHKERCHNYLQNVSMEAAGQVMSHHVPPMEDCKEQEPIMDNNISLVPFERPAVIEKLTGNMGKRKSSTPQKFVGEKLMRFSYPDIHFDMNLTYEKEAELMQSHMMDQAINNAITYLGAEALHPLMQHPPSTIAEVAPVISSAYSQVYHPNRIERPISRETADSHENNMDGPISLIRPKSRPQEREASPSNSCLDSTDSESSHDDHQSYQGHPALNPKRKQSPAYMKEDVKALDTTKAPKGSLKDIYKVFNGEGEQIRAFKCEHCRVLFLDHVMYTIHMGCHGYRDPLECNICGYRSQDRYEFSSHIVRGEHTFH
# experimental-details: IKZF2 reporter degradation assay (HEK 293T IKZF2-mNeonGreen reporter cell line)
# Type: cell-based
# conditions: HEK-293T, 24 h, 1 μM compound, HEK 293T IKZF2 reporter cells, 24 hours incubation
Note: unit % is implicit; provide only the numeric part.

In [3]: df
Out[3]:
                                   compound                             target_system             measure  observed_value
0  O=C1CCC(N2Cc3cc(OC4CCCCC4N4CC(c5cnccn5)C4)ccc3C2=O)C(=O)N1 (stereo not shown)  IKZF2 (Helios) (Homo sapiens, UniProt Q96SW2+Q9UKS7)  inhibition at 1 µM            63.1
1  O=C1CCC(N2Cc3cc(O[C@H]4CCCC[C@@H]4N4CC(n5cccn5)C4)ccc3C2=O)C(=O)N1 (stereo partly shown)  IKZF2 (Helios) (Homo sapiens, UniProt Q96SW2+Q9UKS7)  inhibition at 1 µM              78
2  O=C1CCC(N2Cc3cc(OC4CCCCC4N4CC(c5ccccn5)C4)ccc3C2=O)C(=O)N1 (stereo not shown)  IKZF2 (Helios) (Homo sapiens, UniProt Q96SW2+Q9UKS7)  inhibition at 1 µM              24
3  O=C1CCC(N2Cc3cc(OC4CCCCC4N4CC(c5ccncc5)C4)ccc3C2=O)C(=O)N1 (stereo not shown)  IKZF2 (Helios) (Homo sapiens, UniProt Q96SW2+Q9UKS7)  inhibition at 1 µM              74

Report inhibition at 1 µM for O=C1CCC(N2Cc3cc(OC4CCCCC4N4CC(c5ncc(Cl)cn5)C4)ccc3C2=O)C(=O)N1 (stereo not shown) tested on IKZF2 (Helios) (Homo sapiens, UniProt Q96SW2+Q9UKS7). 78.4

Same read-out for O=C1CCC(N2Cc3cc(OC4CCCCC4N4CC(c5cccnc5)C4)ccc3C2=O)C(=O)N1 (stereo not shown) ? 49.9

Same read-out for Cc1cc(C2CN(C3CCCCC3Oc3ccc4c(c3)CN(C3CCC(=O)NC3=O)C4=O)C2)ccn1 (stereo not shown) ? 84.8

----------
# target-system: human E3 ligase component cereblon (CRBN) (Homo sapiens, UniProt Q96SW2)
# experimental-details: Cereblon (CRBN) target engagement, NanoBRET TE Intracellular E3 Ligase Assay in transfected HEK-293T cells
# conditions: read-out: CRBN Binding EC50
pEC50: −log10 of the molar value.
Assign 1.0 whenever pEC50 does not fall below 8; assign 0.0 whenever it does.

Solved cases below.
compound	qualitative-label
O=C1CCC(N2Cc3cc(O[C@@H]4CCCC[C@@H]4N4CC(c5cncc(Cl)c5)C4)ccc3C2=O)C(=O)N1 (stereo partly drawn) [Compound 105-B]	0.0
Cc1cnccc1C1CN([C@H]2CCCC[C@@H]2Oc2ccc3c(c2)CN(C2CCC(=O)NC2=O)C3=O)C1 (single isomer, unassigned)	0.0
O=C1CCC(N2Cc3cc(O[C@H]4CCCC[C@@H]4N4CC(c5ccc6cccnc6c5)C4)ccc3C2=O)C(=O)N1 (stereo partly drawn)	1.0
O=C1CCC(N2Cc3cc(O[C@@H]4CCCC[C@@H]4N4CC(c5ccncc5F)C4)ccc3C2=O)C(=O)N1 (single isomer, unassigned) [Compound 104-B]	0.0

Tell me whether pEC50 is at least 8 here: O=C1CCC(N2Cc3cc(O[C@H]4CCCC[C@@H]4N4CC(c5ncc(C(F)(F)F)cn5)C4)ccc3C2=O)C(=O)N1 (single isomer, unassigned) [Compound 123-B] 1.0

Same read-out for O=C1NC(=O)C2(N3Cc4cc(O[C@H]5CCCC[C@@H]5N5CC(c6ccncc6)C5)ccc4C3=O)CC1C2 (racemic) ? 0.0

----------
# target-system: IKZF2 (Helios) (Homo sapiens, UniProt Q96SW2+Q9UKS7)
# Construct: Leu-Asp junction (codons ctcgac before the linker); mScarlet (behind P2A) (C, cleaved yes); expressed in transfected cells
# experimental-details: IKZF2 reporter degradation assay (HEK 293T IKZF2-mNeonGreen reporter cell line)
# Format: cell-based
# conditions: HEK-293T, 24 h, @ 1 μM, HEK 293T IKZF2-mNeonGreen reporter, 24 hours incubation
measure: inhibition at 1 µM (%)
Note: unit % is implicit; provide only the numeric part.

// below: answered compounds
>>> print(df.to_string())
                                   compound                             target_system  observed_value
0  O=C1CCC(N2Cc3cc(O[C@H]4CCCC[C@@H]4N4CC(C5CCOCC5F)C4)ccc3C2=O)C(=O)N1 (stereo partly drawn)  IKZF2 (Helios) (Homo sapiens, UniProt Q96SW2+Q9UKS7)            83.8
1  CC1(C(=O)N2CCC(C3CN([C@H]4CCCC[C@@H]4Oc4ccc5c(c4)CN(C4CCC(=O)NC4=O)C5=O)C3)CC2)CC1 (stereo partly drawn)  IKZF2 (Helios) (Homo sapiens, UniProt Q96SW2+Q9UKS7)            88.2
2  O=C1CCC(N2Cc3cc(O[C@@H]4CCCC[C@@H]4N4CC(c5cc(Cl)ccn5)C4)ccc3C2=O)C(=O)N1 (mixture of isomers)  IKZF2 (Helios) (Homo sapiens, UniProt Q96SW2+Q9UKS7)            58.6
3  O=C1CCC(N2Cc3cc(O[C@H]4CCCC[C@@H]4N4CC(c5ccncc5)C4)ccc3C2=O)C(=O)N1 (single isomer, unassigned)  IKZF2 (Helios) (Homo sapiens, UniProt Q96SW2+Q9UKS7)            27.5
4  O=C1CCC(N2Cc3cc(O[C@@H]4CCCC[C@@H]4N4CC(c5cncc(Cl)c5)C4)ccc3C2=O)C(=O)N1 (mixture of isomers)  IKZF2 (Helios) (Homo sapiens, UniProt Q96SW2+Q9UKS7)            75.5

Query compound follows.
May I ask what inhibition at 1 µM has been recorded for O=C1CCC(N2Cc3cc(OC4CCC[C@@H]4N4CC(c5cccnc5)C4)ccc3C2=O)C(=O)N1 (mixture of isomers) ? 24.8

----------
# target-system: human E3 ligase component cereblon (CRBN) (Homo sapiens, UniProt Q96SW2)
# Construct: host or cells: HEK293T
# experimental-details: Cereblon (CRBN) target engagement, NanoBRET TE Intracellular E3 Ligase Assay in transfected HEK-293T cells
# conditions: read-out: CRBN Binding EC50
Each entry belongs to exactly one class, chosen by where its EC50 falls: bin 1 = under 10 nM, bin 2 = from 10 nM up to 40 nM, bin 3 = 40 nM and over

Solved cases below.
compound	qualitative-label
Cc1cnc(C2CN([C@H]3CCCC[C@H]3Oc3ccc4c(c3)CN(C35CC(C3)C(=O)NC5=O)C4=O)C2)o1 (racemic)	bin 3
O=C1NC(=O)C2(N3Cc4cc(O[C@H]5CCCC[C@@H]5N5CC(c6ncc(Cl)cn6)C5)ccc4C3=O)CC1C2 (racemic)	bin 3
O=C1NC(=O)C2(N3Cc4cc(OC5CCCC5N5CC(c6ccncc6)C5)ccc4C3=O)CC1C2 (stereo not drawn)	bin 3
O=C1CCC(N2Cc3cc(O[C@H]4CCCC[C@@H]4N4CC(c5cncc(Cl)c5)C4)ccc3C2=O)C(=O)N1 (mixture of isomers) [Compound 168-B]	bin 3
Cc1ccnc(C2CN([C@H]3CCCC[C@@H]3Oc3ccc4c(c3)CN(C3CCC(=O)NC3=O)C4=O)C2)n1 (mixture of isomers)	bin 3
O=C1CCC(N2Cc3cc(O[C@H]4CCCC[C@@H]4N4CC(c5ccc(C(F)(F)F)nc5)C4)ccc3C2=O)C(=O)N1 (single isomer, unassigned) [Compound 126-B]	bin 1
O=C1CCC(N2Cc3cc(OC4CCCCC4N4CC(c5cccnn5)C4)ccc3C2=O)C(=O)N1 (stereo not drawn)	bin 3
O=C1CCC(N2Cc3cc(OC4CCCCC4N4CC(c5ccc6cccnc6c5)C4)ccc3C2=O)C(=O)N1 (stereo not drawn)	bin 1
O=C1CCC(N2Cc3cc(O[C@@H]4CCCC[C@@H]4N4CC(c5ccncc5F)C4)ccc3C2=O)C(=O)N1 (mixture of isomers) [Compound 153-B]	bin 2
O=C1CCC(N2Cc3cc(O[C@H]4CCCC[C@@H]4N4CC(c5ncncc5Cl)C4)ccc3C2=O)C(=O)N1 (single isomer, unassigned) [Compound 93-B]	bin 3

Each compound maps to one class by EC50. Which class for O=C1CCC(N2Cc3cc(O[C@H]4CCCC[C@@H]4N4CC(c5ncc(Br)cn5)C4)ccc3C2=O)C(=O)N1 (mixture of isomers) [Compound 137-B] ? bin 2

Same read-out for O=C1CCC(N2Cc3cc(O[C@@H]4CCCC[C@@H]4N4CC(c5cncc(Cl)c5)C4)ccc3C2=O)C(=O)N1 (mixture of isomers) [Compound 155-B] ? bin 2

Same read-out for O=C1CCC(N2Cc3cc(O[C@H]4CCCC[C@@H]4N4CC(c5ccc6ccccc6n5)C4)ccc3C2=O)C(=O)N1 (mixture of isomers) [Compound 152-B] ? bin 1

Same read-out for O=C1CCC(N2Cc3cc(O[C@H]4CCCC[C@@H]4N4CC(c5ncc(Cl)cn5)C4)ccc3C2=O)C(=O)N1 (single isomer, unassigned) [Compound 110-B] ? bin 2

Same read-out for O=C1CCC(N2Cc3cc(O[C@H]4CCCC[C@@H]4N4CC(c5ncncc5Cl)C4)ccc3C2=O)C(=O)N1 (single isomer, unassigned) [Compound 92-B] ? bin 2

Same read-out for O=C1CCC(N2Cc3cc(O[C@@H]4CCCC[C@@H]4N4CC(c5ncc(Br)cn5)C4)ccc3C2=O)C(=O)N1 (mixture of isomers) ? bin 1

Same read-out for Cc1cnc(C2CN([C@H]3CCCC3Oc3ccc4c(c3)CN(C3CCC(=O)NC3=O)C4=O)C2)o1 (mixture of isomers) [Compound 151-B] ? bin 3

Same read-out for O=C1CCC(N2Cc3cc(OC4CCCC4N4CC(c5ccc6cccnc6c5)C4)ccc3C2=O)C(=O)N1 (stereo not drawn) ? bin 2

Same read-out for O=C1CCC(N2Cc3cc(O[C@@H]4CCCC[C@H]4N4CC(c5ccc(Cl)cn5)C4)ccc3C2=O)C(=O)N1 (mixture of isomers) ? bin 2

Same read-out for O=C1CCC(N2Cc3cc(O[C@H]4CCCC[C@@H]4N4CC(c5ncc(C(F)(F)F)cn5)C4)ccc3C2=O)C(=O)N1 (single isomer, unassigned) [Compound 120-B] ? bin 1

Same read-out for O=C1CCC(N2Cc3cc(O[C@@H]4CCCC[C@H]4N4CC(c5ccc(C(F)(F)F)nc5)C4)ccc3C2=O)C(=O)N1 (single isomer, unassigned) [Compound 125-B] ? bin 3
